measured.target: Cholecystokinin receptor type A (Rattus norvegicus, UniProt P30551)
method: In vitro inhibition of binding of [3H]pCCK-8 against Cholecystokinin type A receptor of rat pancreatic membranes
Type: cell membranes, Membrane
readout.type: pKi
Reminder that pKi means the negative base-10 logarithm of the concentration expressed in mol/L.

Take a look at these entries with their results.
compound | measured.number
O=C(Nc1ccc(Br)cc1)NC1C(=O)N(CC23C[C@H]4C[C@@H](C2)C[C@@H](C3)C4)c2ccccc2N(c2ccccc2)C1=O (stereo partly drawn) | 5.46
CC(C)(C)CCN1C(=O)C(NC(=O)Nc2ccccc2)C(=O)N(c2ccccc2F)c2ccccc21 (racemic) | 7.15
CC(C)CCN1C(=O)C(NC(=O)Nc2cccc(N(C)C)c2)C(=O)N(c2ccccc2F)c2ccccc21 (racemic) | 6.90
CN(C)c1cccc(NC(=O)NC2C(=O)N(CCC34C[C@H]5C[C@@H](C3)C[C@@H](C4)C5)c3ccccc3N(c3ccccc3)C2=O)c1 (stereo partly drawn) | 6.53
O=C(Nc1cccc([N+](=O)[O-])c1)NC1C(=O)N(CC23C[C@H]4C[C@@H](C2)C[C@@H](C3)C4)c2ccccc2N(c2ccccc2)C1=O (mixture of isomers) | 6.52

INPUT: Using the record for O=C(Nc1ccccc1)NC1C(=O)N(CCC23C[C@H]4C[C@@H](C2)C[C@@H](C3)C4)c2ccccc2N(c2ccccc2)C1=O (mixture of isomers) , report its pKi.
OUTPUT: 6.66

INPUT: So what does the record say about pKi for CC(C)(C)CCN1C(=O)C(NC(=O)Nc2ccccc2)C(=O)N(c2ccccc2)c2ccccc21 (racemic) ?
OUTPUT: 6.95

INPUT: Which value of pKi has been reported for O=C(Nc1ccccc1)NC1C(=O)N(CCC2CCCC2)c2ccccc2N(c2ccccc2F)C1=O (racemic) in the records?
OUTPUT: 7.00

INPUT: What value of pKi has been reported for the following compound? O=C(Nc1cccc(C(=O)O)c1)NC1C(=O)N(CC23C[C@H]4C[C@@H](C2)C[C@@H](C3)C4)c2ccccc2N(c2ccccc2)C1=O (mixture of isomers)
OUTPUT: 6.20

INPUT: Would you mind telling me what pKi value was observed for O=C(Nc1ccc(O)cc1)NC1C(=O)N(CC23C[C@H]4C[C@@H](C2)C[C@@H](C3)C4)c2ccccc2N(c2ccccc2)C1=O (single isomer, unassigned; (+)) ?
OUTPUT: 4.69

INPUT: Given the compound O=C(Nc1cccc(C2N=NN=N2)c1)NC1C(=O)N(c2ccccc2)c2ccccc2N(C2[C@H]3C[C@@H]4C[C@@H](C[C@H]2C4)C3)C1=O (stereo partly drawn) , what is its reported pKi?
OUTPUT: 7.01

INPUT: Entry O=Cc1cccc(NC(=O)NC2C(=O)N(CC34C[C@H]5C[C@@H](C3)C[C@@H](C4)C5)c3ccccc3N(c3ccccc3)C2=O)c1 (stereo partly drawn) : reported pKi = ?
OUTPUT: 5.95

INPUT: pKi lookup needed for O=C(Nc1cccc(Cl)c1)NC1C(=O)N(c2ccccc2)c2ccccc2N(C2CC3CCC2C3)C1=O (stereo not drawn) , thanks.
OUTPUT: 7.32

---

Species: Cavia porcellus
method: Selectivity factor between CCK-B and CCK-A receptors
readout.type: Ratio
When you answer, write just the number.

Consider the following illustrative entries.
compound | Ratio
O=C(Nc1cccc(C(=O)O)c1)NC1C(=O)N(CC23C[C@H]4C[C@@H](C2)C[C@@H](C3)C4)c2ccccc2N(c2ccccc2)C1=O (mixture of isomers) | 646
CC(C)CCN1C(=O)C(NC(=O)Nc2cccc(N(C)C)c2)C(=O)N(c2ccccc2F)c2ccccc21 (single isomer, unassigned; (+)) | 933

INPUT: Find the recorded Ratio belonging to CSc1cccc(NC(=O)NC2C(=O)N(CCC(C)C)c3ccccc3N(c3ccccc3F)C2=O)c1 (racemic) and report it.
OUTPUT: 110

INPUT: Data request, read-out Ratio, for CC(=O)Nc1cccc(NC(=O)NC2C(=O)N(CC34C[C@H]5C[C@@H](C3)C[C@@H](C4)C5)c3ccccc3N(c3ccccc3)C2=O)c1 (stereo partly drawn)
OUTPUT: 591

INPUT: I am curious: what Ratio value has been reported for O=C(Nc1cccc(C2N=NN=N2)c1)NC1C(=O)N(c2ccccc2)c2ccccc2N(C2[C@H]3C[C@@H]4C[C@@H](C[C@H]2C4)C3)C1=O (stereo partly drawn) ?
OUTPUT: 47

INPUT: Which Ratio value is on record for O=C(Nc1ccccc1)NC1C(=O)N(c2ccccc2)c2ccccc2N(C2CC3CCC2C3)C1=O (racemic) ?
OUTPUT: 162

INPUT: Request the reported Ratio associated with CC(C)(C)CCN1C(=O)C(NC(=O)Nc2ccccc2)C(=O)N(c2ccccc2F)c2ccccc21 (racemic)
OUTPUT: 74

INPUT: # lookup: Ratio of CN(C)c1cccc(NC(=O)NC2C(=O)N(CCC34C[C@H]5C[C@@H](C3)C[C@@H](C4)C5)c3ccccc3N(c3ccccc3)C2=O)c1 (stereo partly drawn)
OUTPUT: 22

INPUT: Reported Ratio, compound O=C(Nc1cccc(Cl)c1)NC1C(=O)N(c2ccccc2)c2ccccc2N(C2CC3CCC2C3)C1=O (stereo not drawn) : ____
OUTPUT: 28

INPUT: # Ratio lookup, item O=C(Nc1cccc(C(=O)OCCN2CCOCC2)c1)NC1C(=O)N(CC23C[C@H]4C[C@@H](C2)C[C@@H](C3)C4)c2ccccc2N(c2ccccc2)C1=O (single isomer, unassigned; (+))
OUTPUT: 603

INPUT: Item CSc1cccc(NC(=O)NC2C(=O)N(CCC34C[C@H]5C[C@@H](C3)C[C@@H](C4)C5)c3ccccc3N(c3ccccc3)C2=O)c1 (stereo partly drawn) has what recorded Ratio?
OUTPUT: 4

INPUT: Given the compound CC(C)(C)CCN1C(=O)C(NC(=O)Nc2cccc(OC(F)(F)F)c2)C(=O)N(c2ccccc2)c2ccccc21 (racemic) , what is its reported Ratio?
OUTPUT: 38

INPUT: Report Ratio for CSc1cccc(NC(=O)NC2C(=O)N(CCC(C)(C)C)c3ccccc3N(c3ccccc3)C2=O)c1 (racemic) please.
OUTPUT: 15

---

measured.target: Cholecystokinin receptor type A (Rattus norvegicus, UniProt P30551)
method: In vitro inhibition of binding of [3H]pCCK-8 against Cholecystokinin type A receptor of rat pancreatic membranes
Assay type: cell membranes, Membrane
Returns: string. Value is yes (1) if measured Ki is below 300 nM, and no (0) if it is greater than or equal to it.

compound | cat
O=C(Nc1ccccc1)NC1C(=O)N(CCc2ccccc2)c2ccccc2N(c2ccccc2)C1=O (racemic) | yes (1)

INPUT: Consider the compound CCOC(=O)CCCOc1ccc(NC(=O)NC2C(=O)N(CC34C[C@H]5C[C@@H](C3)C[C@@H](C4)C5)c3ccccc3N(c3ccccc3)C2=O)cc1 (single isomer, unassigned; (+)) . Is its Ki strictly less than 300 nM?
OUTPUT: no (0)

INPUT: Criterion: Ki strictly below 300 nM. Is it met by CC(O)C(O)Nc1cccc(NC(=O)NC2C(=O)N(CC34C[C@H]5C[C@@H](C3)C[C@@H](C4)C5)c3ccccc3N(c3ccccc3)C2=O)c1 (single isomer, unassigned; (+)) ?
OUTPUT: no (0)

INPUT: # strict comparison: is reported Ki < 300 nM? input = CN(C)c1cccc(NC(=O)NC2C(=O)N(CCC(C)(C)C)c3ccccc3N(c3ccccc3F)C2=O)c1 (racemic)
OUTPUT: yes (1)

INPUT: Answer whether the compound CC(C)Cn1nnc(-c2cccc(NC(=O)NC3C(=O)N(CCC(C)(C)C)c4ccccc4N(c4ccccc4)C3=O)c2)n1 (racemic) has Ki strictly less than 300 nM
OUTPUT: yes (1)

INPUT: Does the reported Ki of the following compound sit strictly below 300 nM? O=C(Nc1cccc(CO)c1)NC1C(=O)N(CC23C[C@H]4C[C@@H](C2)C[C@@H](C3)C4)c2ccccc2N(c2ccccc2)C1=O (single isomer, unassigned; (+))
OUTPUT: no (0)

---

Listing: pKi of selected compounds
measured.target: Cholecystokinin receptor type A (Rattus norvegicus)
Sequence (P30551 whole entry): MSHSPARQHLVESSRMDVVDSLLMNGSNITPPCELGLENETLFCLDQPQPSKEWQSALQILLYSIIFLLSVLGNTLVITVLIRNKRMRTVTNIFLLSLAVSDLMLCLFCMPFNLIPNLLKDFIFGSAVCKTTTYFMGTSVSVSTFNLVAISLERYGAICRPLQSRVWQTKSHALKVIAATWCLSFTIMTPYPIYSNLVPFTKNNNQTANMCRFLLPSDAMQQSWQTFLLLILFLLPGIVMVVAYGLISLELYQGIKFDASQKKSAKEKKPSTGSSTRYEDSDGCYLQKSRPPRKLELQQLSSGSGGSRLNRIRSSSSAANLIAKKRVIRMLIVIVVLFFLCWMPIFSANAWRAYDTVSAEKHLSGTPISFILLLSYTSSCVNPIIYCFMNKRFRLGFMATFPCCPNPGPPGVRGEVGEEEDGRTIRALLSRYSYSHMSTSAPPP
method: In vitro inhibition of binding of [3H]pCCK-8 against Cholecystokinin type A receptor of rat pancreatic membranes
Type: cell membranes, Membrane
API: returns pKi as number; meaning -log10 of concentration in mol/L.

Worked cases, pKi given:
compound | pKi
O=C(Nc1cccc(Br)c1)NC1C(=O)N(CC23C[C@H]4C[C@@H](C2)C[C@@H](C3)C4)c2ccccc2N(c2ccccc2)C1=O (mixture of isomers) | 6.72
CSc1cccc(NC(=O)NC2C(=O)N(CCC34C[C@H]5C[C@@H](C3)C[C@@H](C4)C5)c3ccccc3N(c3ccccc3)C2=O)c1 (stereo partly drawn) | 6.60

Here is another compound to look at.
INPUT: Form field - read-out: pKi; system: Cholecystokinin receptor type A (Rattus norvegicus); submitted item: CC(C)CCN1C(=O)C(NC(=O)Nc2cccc(N(C)C)c2)C(=O)N(c2ccccc2F)c2ccccc21 (single isomer, unassigned; (-))
OUTPUT: 7.14
